target.desc: Fibroblast growth factor receptor 3 (Homo sapiens) (UniProt P22607)
Sequence (P22607 23-806 limits assumed): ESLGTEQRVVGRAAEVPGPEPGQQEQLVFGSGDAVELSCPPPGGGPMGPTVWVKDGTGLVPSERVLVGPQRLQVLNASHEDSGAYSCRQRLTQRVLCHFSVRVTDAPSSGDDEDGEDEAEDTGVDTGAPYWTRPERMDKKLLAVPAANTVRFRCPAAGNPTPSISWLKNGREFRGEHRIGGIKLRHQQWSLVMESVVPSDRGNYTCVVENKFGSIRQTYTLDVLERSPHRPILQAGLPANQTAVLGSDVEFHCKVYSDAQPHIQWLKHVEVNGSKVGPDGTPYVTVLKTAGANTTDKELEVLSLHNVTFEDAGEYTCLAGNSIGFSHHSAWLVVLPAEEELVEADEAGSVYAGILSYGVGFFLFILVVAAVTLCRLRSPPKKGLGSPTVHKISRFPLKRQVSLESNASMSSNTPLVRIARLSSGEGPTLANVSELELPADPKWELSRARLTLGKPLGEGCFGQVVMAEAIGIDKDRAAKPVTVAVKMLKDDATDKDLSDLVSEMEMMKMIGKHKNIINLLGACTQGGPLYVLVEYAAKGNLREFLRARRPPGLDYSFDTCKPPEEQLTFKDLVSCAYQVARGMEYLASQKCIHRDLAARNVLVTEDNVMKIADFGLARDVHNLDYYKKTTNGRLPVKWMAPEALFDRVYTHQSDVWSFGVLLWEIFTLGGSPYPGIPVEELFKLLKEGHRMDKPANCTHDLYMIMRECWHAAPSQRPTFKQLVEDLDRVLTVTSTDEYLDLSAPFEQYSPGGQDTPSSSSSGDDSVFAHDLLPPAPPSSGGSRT
assay.conditions: at 10 µM
measured.quantity: residual activity (%)
All answers are understood in %, so give the number only.

1. c1ccc(-c2n[nH]c3c2oc2ccccc23)cc1 : 59
2. Cc1cccc(-c2[nH]c(C(C)(C)C)nc2-c2ccc3c(c2)OCO3)n1 : 129
3. CO[C@H]1C[C@@H]2CC[C@@H](C)[C@@](O)(O2)C(=O)C(=O)N2CCCC[C@H]2C(=O)O[C@H]([C@H](C)C[C@@H]2CC[C@@H](O)[C@H](OC)C2)CC(=O)[C@H](C)/C=C(\C)[C@@H](O)[C@@H](OC)C(=O)[C@H](C)C[C@H](C)/C=C/C=C/C=C/1C : 107

Next, consider the following compound.
Exercise: What value of residual activity has been recorded for this entry: CC(=O)O/N=C1\C(=C2\C(=O)Nc3cc(Br)ccc32)Nc2ccccc21
Key: 22

---

target.desc: Fibroblast growth factor receptor 3 (Homo sapiens) (UniProt P22607)
assay.conditions: at 1 µM
Overview of recorded residual activity for various compounds
All answers are understood in %, so give the number only.

1. O=C(Nc1cccc(Nc2nccc(Nc3cccc(C(F)(F)F)c3)n2)c1)C1CC1 : 83
2. CO[C@H]1C[C@@H]2CC[C@@H](C)[C@@](O)(O2)C(=O)C(=O)N2CCCC[C@H]2C(=O)O[C@H]([C@H](C)C[C@@H]2CC[C@@H](O)[C@H](OC)C2)CC(=O)[C@H](C)/C=C(\C)[C@@H](O)[C@@H](OC)C(=O)[C@H](C)C[C@H](C)/C=C/C=C/C=C/1C : 97
3. Cc1nc2cc3nc(-c4cccs4)cnc3cc2n1C : 79
4. O=C1NC(=O)/C(=C/c2ccc3c(c2)OC(F)(F)O3)S1 : 111
5. O=C(Nc1cccc(Nc2cc(Nc3cccc(C(F)(F)F)c3)ncn2)c1)C1CC1 : 112
6. CC[n+]1c(/C=C/N(C)c2ccccc2)n(-c2ccccc2)c2ccc(-c3nc4ccccc4s3)cc21 : 105
7. N#CC(C#N)=C(N)/C(C#N)=C/c1ccc(O)cc1 : 99

Exercise: What value of residual activity has been recorded for this entry: CO[C@H]1[C@@H](OC)C[C@H](C)[C@@H](OC)C2=CC(=O)C=C(NC(=O)/C(C)=C/C=C/[C@H](OC)[C@@H](OC(N)=O)/C(C)=C/[C@@H]1C)C2=O
Key: 112

---

target.desc: Vascular endothelial growth factor receptor 2 (Homo sapiens) (UniProt P35968)
Sequence (P35968 whole entry): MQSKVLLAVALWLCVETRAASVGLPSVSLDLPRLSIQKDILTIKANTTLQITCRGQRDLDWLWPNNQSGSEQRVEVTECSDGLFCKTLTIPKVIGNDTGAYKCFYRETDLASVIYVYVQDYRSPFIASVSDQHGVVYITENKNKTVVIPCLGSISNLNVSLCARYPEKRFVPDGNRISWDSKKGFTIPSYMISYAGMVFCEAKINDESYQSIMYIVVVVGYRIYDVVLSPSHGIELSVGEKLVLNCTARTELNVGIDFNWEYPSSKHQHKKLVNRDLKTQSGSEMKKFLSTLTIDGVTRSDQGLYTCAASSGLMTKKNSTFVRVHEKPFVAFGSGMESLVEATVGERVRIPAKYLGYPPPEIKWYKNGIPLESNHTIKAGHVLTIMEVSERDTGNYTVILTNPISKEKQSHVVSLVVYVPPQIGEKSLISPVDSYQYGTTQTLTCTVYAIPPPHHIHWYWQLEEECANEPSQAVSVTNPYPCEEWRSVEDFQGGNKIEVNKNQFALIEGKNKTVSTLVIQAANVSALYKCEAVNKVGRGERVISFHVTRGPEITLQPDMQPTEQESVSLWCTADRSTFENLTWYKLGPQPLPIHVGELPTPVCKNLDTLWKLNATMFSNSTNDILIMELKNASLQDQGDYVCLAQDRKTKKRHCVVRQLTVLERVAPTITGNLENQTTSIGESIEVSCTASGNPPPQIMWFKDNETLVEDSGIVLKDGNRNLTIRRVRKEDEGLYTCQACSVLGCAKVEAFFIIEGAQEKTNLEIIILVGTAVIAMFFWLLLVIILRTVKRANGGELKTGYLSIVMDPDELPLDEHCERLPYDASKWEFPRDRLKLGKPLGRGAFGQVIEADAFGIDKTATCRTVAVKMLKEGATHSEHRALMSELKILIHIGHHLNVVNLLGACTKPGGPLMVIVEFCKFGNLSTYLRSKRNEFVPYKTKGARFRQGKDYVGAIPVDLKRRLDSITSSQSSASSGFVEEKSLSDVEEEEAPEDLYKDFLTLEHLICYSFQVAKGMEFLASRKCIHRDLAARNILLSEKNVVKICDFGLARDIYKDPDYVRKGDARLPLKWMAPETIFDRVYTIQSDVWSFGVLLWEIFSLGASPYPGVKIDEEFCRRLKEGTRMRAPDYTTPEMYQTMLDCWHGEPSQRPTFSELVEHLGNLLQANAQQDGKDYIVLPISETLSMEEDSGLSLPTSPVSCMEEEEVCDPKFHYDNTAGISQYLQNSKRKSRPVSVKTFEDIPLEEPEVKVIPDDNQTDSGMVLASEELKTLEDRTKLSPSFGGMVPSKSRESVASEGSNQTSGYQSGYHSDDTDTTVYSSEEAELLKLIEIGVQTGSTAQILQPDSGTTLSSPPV
assay.conditions: at 10 µM
Please assign condition not met whenever residual activity is at or above 80%, and condition met whenever it is below.

Worked set:
1) CC[n+]1c(/C=C/N(C)c2ccccc2)n(-c2ccccc2)c2ccc(-c3nc4ccccc4s3)cc21 : condition not met
2) CCOc1cc2ncnc(Nc3cccc(Br)c3)c2cc1OCC : condition met
3) O=C1Nc2ccc(Br)cc2/C1=C\c1cc2c([nH]1)CCCC2 : condition met
4) COc1ccc(CNc2nc(N(CCO)CCO)nc3c2ncn3C(C)C)cc1 : condition met
5) Oc1c2ccccc2c2c3c(cccc13)N=N2 : condition met

Exercise: I'd appreciate it if you could check whether Cn1cnc2cc3c(Nc4cccc(Br)c4)ncnc3cc21 has residual activity smaller than 80%.
Key: condition met

Exercise: What would you report for NC(=O)c1ccc2[nH]c(-c3ccc(Oc4ccc(Cl)cc4)cc3)nc2c1 ?
Key: condition met

Exercise: What would you report for CN(C)CCCn1cc(C2=C(c3c[nH]c4ccccc34)C(=O)NC2=O)c2ccccc21 ?
Key: condition met

Exercise: What would you report for Cc1ccc(NC2=CC(=O)c3sc(C)nc3C2=O)cc1 ?
Key: condition not met

Exercise: What would you report for COc1cc2ncnc(Nc3ccc(NC(=O)c4ccccc4)cc3)c2cc1OC ?
Key: condition met

Exercise: What would you report for O=C1Nc2ccccc2/C1=C1/Nc2ccccc2/C1=N\OCCC(O)CO (configuration not stated) ?
Key: condition met

---

target.desc: Aurora kinase A (Homo sapiens)
Sequence (whole entry): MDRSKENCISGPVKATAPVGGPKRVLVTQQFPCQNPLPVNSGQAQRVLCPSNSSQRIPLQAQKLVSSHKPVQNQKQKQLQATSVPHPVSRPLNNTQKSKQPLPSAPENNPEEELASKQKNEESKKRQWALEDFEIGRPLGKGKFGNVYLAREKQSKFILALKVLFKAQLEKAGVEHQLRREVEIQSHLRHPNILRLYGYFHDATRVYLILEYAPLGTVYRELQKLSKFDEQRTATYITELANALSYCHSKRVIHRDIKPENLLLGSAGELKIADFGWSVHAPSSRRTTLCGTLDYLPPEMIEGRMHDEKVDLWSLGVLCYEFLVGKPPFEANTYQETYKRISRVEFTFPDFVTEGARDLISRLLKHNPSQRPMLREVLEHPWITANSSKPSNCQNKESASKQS
assay.conditions: at 10 µM
measured.quantity: residual activity (%)
All answers are understood in %, so give the number only.

Sample answers from the record:
1) Cn1cc(/C=C2\C(=O)Nc3ccc(S(N)(=O)=O)cc32)c2ccccc21 : 4
2) CC(=O)c1ccc(N2CCOCC2)cc1O : 100
3) COc1cc2ncc(-c3ccccc3)nc2cc1OC : 98
4) COc1cc2ncnc(Nc3ccc(NC(=O)c4ccccc4)cc3)c2cc1OC : 12
5) Cc1cc2ncc(-c3ccccc3)nc2cc1C : 96

Exercise: What value of residual activity has been recorded for this entry: CC(=O)O/N=C1\C(=C2\C(=O)Nc3cc(Br)ccc32)Nc2ccccc21
Key: 17

Exercise: What would you report for Cn1cnc2cc3c(Nc4cccc(Br)c4)ncnc3cc21 ?
Key: 45

Exercise: What would you report for N#CCCc1ccc2c(c1)-c1[nH]c3ccc([N+](=O)[O-])cc3c1CC(=O)N2 ?
Key: 37

Exercise: What would you report for CCOc1cc2ncnc(Nc3cccc(Br)c3)c2cc1OCC ?
Key: 46

Exercise: What would you report for N#Cc1cnc2cnc(NCc3cccnc3)cc2c1Nc1ccc(F)c(Cl)c1 ?
Key: 24

Exercise: What would you report for NC(=O)c1ccc2[nH]c(-c3ccc(Oc4ccc(Cl)cc4)cc3)nc2c1 ?
Key: 86

Exercise: What would you report for O=c1c2ccccc2[nH]c(=S)n1CCN1CCC(=C(c2ccc(F)cc2)c2ccc(F)cc2)CC1 ?
Key: 108

Exercise: What would you report for COc1cc2ncnc(N3CCN(C(=O)Nc4ccc(Oc5ccccc5)cc4)CC3)c2cc1OC ?
Key: 48

Exercise: What would you report for CO[C@@H]1[C@H](N(C)C(=O)c2ccccc2)C[C@H]2O[C@]1(C)n1c3ccccc3c3c4c(c5c6ccccc6n2c5c31)C(=O)NC4 ?
Key: -2

Exercise: What would you report for O=C(Nc1cccc(Nc2cc(Nc3cccc(C(F)(F)F)c3)ncn2)c1)C1CC1 ?
Key: 82

Exercise: What would you report for O=C1NC(=O)c2c1c1c3ccccc3[nH]c1c1[nH]c3cc(Br)ccc3c21 ?
Key: 75

Exercise: What would you report for COc1cc2ncnc(Nc3ccc(Oc4ccccc4)cc3)c2cc1OC ?
Key: 30

Exercise: What would you report for c1ccc2c(-c3ccncc3)c[nH]c2c1 ?
Key: 76

Exercise: What would you report for Cn1nc2c3c(cccc31)C(=O)c1ccccc1-2 ?
Key: 74

---

target.desc: Tyrosine-protein kinase JAK3 (Homo sapiens) (UniProt P52333)
Sequence (P52333 whole entry): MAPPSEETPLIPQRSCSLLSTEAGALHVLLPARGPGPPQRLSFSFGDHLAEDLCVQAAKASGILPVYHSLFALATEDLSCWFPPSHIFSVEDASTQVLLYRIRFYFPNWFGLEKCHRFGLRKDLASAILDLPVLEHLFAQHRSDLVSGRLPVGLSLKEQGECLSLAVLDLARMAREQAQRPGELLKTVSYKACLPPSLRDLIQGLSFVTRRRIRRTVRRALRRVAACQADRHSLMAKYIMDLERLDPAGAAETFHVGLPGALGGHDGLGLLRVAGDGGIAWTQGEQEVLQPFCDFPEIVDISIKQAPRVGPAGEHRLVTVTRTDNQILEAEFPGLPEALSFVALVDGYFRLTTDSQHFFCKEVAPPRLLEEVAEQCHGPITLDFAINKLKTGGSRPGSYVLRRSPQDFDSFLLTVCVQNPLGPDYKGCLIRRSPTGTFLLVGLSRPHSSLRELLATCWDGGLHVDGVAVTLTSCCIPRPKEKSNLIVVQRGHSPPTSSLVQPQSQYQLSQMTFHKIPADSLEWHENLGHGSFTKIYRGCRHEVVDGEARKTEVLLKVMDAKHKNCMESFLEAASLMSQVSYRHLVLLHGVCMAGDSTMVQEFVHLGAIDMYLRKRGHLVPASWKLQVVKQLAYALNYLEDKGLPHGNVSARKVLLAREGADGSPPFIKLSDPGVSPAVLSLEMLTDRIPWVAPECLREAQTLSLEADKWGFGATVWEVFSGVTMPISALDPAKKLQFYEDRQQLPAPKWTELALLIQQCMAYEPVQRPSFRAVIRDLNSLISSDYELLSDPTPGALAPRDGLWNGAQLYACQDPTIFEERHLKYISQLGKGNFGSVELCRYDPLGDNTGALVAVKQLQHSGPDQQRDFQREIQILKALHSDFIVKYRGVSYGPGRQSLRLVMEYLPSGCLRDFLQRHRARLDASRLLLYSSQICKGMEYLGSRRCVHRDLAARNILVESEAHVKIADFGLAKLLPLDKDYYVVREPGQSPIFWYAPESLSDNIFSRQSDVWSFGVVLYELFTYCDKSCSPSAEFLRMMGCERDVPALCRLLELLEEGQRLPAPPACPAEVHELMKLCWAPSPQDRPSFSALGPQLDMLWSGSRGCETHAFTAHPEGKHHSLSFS
assay.conditions: at 1 µM
measured.quantity: residual activity
Express the reported value numerically, then name its unit.

Sample answers from the record:
1. CC(C)n1cnc2/c(=N/c3cccc(Cl)c3)nc(NCCO)[nH]c21 : 111%
2. CO[C@H]1[C@@H](OC)C[C@H](C)[C@@H](OC)C2=CC(=O)C=C(NC(=O)/C(C)=C/C=C/[C@H](OC)[C@@H](OC(N)=O)/C(C)=C/[C@@H]1C)C2=O : 94%
3. O=C(Nc1cccc(Nc2nccc(Nc3cccc(C(F)(F)F)c3)n2)c1)C1CC1 : 76%
4. COc1ccc(CNc2nc(N(CCO)CCO)nc3c2ncn3C(C)C)cc1 : 105%
5. Nc1nc(Nc2ccc(S(N)(=O)=O)cc2)nn1C(=S)Nc1c(F)cccc1F : 0%

Next, consider the following compound.
Exercise: What value of residual activity has been recorded for this entry: Nc1n[nH]c2nnc(-c3c(-c4ccccc4)nn4ccccc34)cc12
Key: 103%

---

Overview of recorded residual activity for various compounds
target.desc: Calcium/calmodulin-dependent protein kinase type 1 (Homo sapiens) (UniProt Q14012)
Sequence (Q14012 whole entry, looked up): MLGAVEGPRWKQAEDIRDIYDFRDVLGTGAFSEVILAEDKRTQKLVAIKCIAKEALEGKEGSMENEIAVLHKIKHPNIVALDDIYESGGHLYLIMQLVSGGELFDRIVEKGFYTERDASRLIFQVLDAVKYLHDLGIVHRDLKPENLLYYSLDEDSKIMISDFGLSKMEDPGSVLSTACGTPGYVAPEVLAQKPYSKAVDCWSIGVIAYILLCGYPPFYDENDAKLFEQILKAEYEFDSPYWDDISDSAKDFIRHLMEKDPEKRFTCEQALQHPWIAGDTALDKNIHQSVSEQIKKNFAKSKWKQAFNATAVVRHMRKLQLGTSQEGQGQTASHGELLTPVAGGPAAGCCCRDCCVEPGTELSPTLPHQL
assay.conditions: at 1 µM
All answers are understood in %, so give the number only.

Sample answers from the record:
1) Oc1ccc(-c2nc(-c3ccc(F)cc3)c(-c3ccncc3)[nH]2)cc1 : 111
2) COc1ccc(C(=O)Nc2sc3c(c2C(N)=O)CCCC3)cc1OC : 102

Exercise: Return residual activity measured with Calcium/calmodulin-dependent protein kinase type 1 (Homo sapiens) (UniProt Q14012) given this compound: O=C(Nc1cccc(Nc2nccc(Nc3cccc(C(F)(F)F)c3)n2)c1)C1CC1
Key: 86

Exercise: What would you report for Cc1ccc(S(=O)(=O)/C=C/C#N)cc1 ?
Key: 95

Exercise: What would you report for COc1cccc(-c2cc(=O)c3ccccc3o2)c1N ?
Key: 97
